Species on record: Rattus norvegicus
procedure_summary: Inhibition of rat microsomal SOAT assessed as reduction in cholesteryl oleate formation from oleoyl co-enzyme A at 10 uM pretreated for 15 mins followed by oleoyl co-enzyme A addition measured after 10 mins by HPTLC method relative to control
measurement_kind: inhibition (%)

{"columns": ["line_notation", "inhibition / %"],
 "data": [
  ["CCCCNC(=O)Nc1nc(-c2ccc(C)cc2)c(-c2ccc(NS(C)(=O)=O)cc2)s1", 32.7],
  ["CCCCCCCNC(=O)Nc1nc(-c2ccc(OC)cc2)c(-c2ccc(Cl)cc2)s1", 1.73],
  ["CCc1cccc(CC)c1NC(=O)Nc1ccc(-c2sc(C)nc2-c2ccc(OC)cc2)cc1", 31.6],
  ["Cc1nc(-c2ccc(F)cc2)c(-c2ccc(NC(=O)Nc3c(C(C)C)cccc3C(C)C)cc2)s1", 42.1],
  ["Cc1nc(-c2ccc(Cl)cc2)c(-c2ccc(NC(=O)NCCN3CCOCC3)cc2)s1", 12.3]
]}

[I] O=C(Nc1nc(-c2ccccc2)c(-c2ccccc2)s1)Nc1ccc(F)cc1F
[II] COc1ccc(-c2nc(C)sc2-c2ccc(NC(=O)Nc3ccc(F)cc3F)cc2)cc1
[III] CCCCNC(=O)Nc1ccc(-c2sc(C)nc2-c2ccc(OC)cc2)cc1
Form: Sort by [inhibition] Order [ ascending ] Response field: labels, in requested order.
I, II, III
(I: 3.03%, II: 22.3%, III: 40%)

[a] CCCCCCCNC(=O)Nc1ccc(-c2sc(C)nc2-c2ccc(C)cc2)cc1
[b] CCCCNC(=O)Nc1nc(-c2ccc(OC)cc2)c(-c2ccc([N+](=O)[O-])cc2)s1
Which record would sort first by descending inhibition, a or b ? Response format: the label of the selected entry.
a
(a: 33.4%, b: 3.12%)
